Target: H7 A/Anhui/1-BALF_RG17/2013 HA on H7N9 AH/13 pseudo virus (influenza A virus A/Anhui/1-BALF_RG17/2013 (H7N9))
Assay: cell-based or functional assay
metric: IC50 of pseudo virus neutralization H7N9 AH/13

binder: P48 (antibody, V domains shown) VH: EVQLVESGGGLVQPGGSLRLSCAASGFTINSWGIHWVRQAPGKGLEWVAGIGPSWGYTSYADSVKGRFTISADTSKNTAYLQMNSLRAEDTAVYYCARFGDGDFDLMDYWGQGTLVTVSS VL: DIQMTQSPSSLSASVGDRVTITCRASQDVWSYVAWYQQKPGKAPKLLISYTSYLYSGVPSRFSGSGSGTDFTLTISSLQPEDFATYYCQQYFNWPITFGQGTKVEIKR
result: > 200 µg/mL
--
binder: S10 (antibody, V domains shown) VH: EVQLVESGGGLVQPGGSLRLSCAASGFTIGGYGIHWVRQAPGKGLEWVASIGPSWGFTFYADSVKGRFTISADTSKNTAYLQMNSLRAEDTAVYYCARFNWVINGVTDYWGQGTLVTVSS VL: DIQMTQSPSSLSASVGDRVTITCRASQDVSYYVAWYQQKPGKAPKLLIFWSTFLYSGVPSRFSGSGSGTDFTLTISSLQPEDFATYYCQQYYDSPMTFGQGTKVEIKR
result: > 200 µg/mL
--
binder: S29 (antibody, V domains shown) VH: EVQLVESGGGLVQPGGSLRLSCAASGFTISDYWIHWVRQAPGKGLEWVASIWPSGGYTYYADSVKGRFTISADTSKNTAYLQMNSLRAEDTAVYYCARFNWIVGHYMDYWGQGTLVTVSS VL: DIQMTQSPSSLSASVGDRVTITCRASQDVFGGVAWYQQKPGKAPKLLIYWSSWLYSGVPSRFSGSGSGTDFTLTISSLQPEDFATYYCQQYYDGPITFGQGTKVEIKR
result: > 200 µg/mL
